Reference source: PubChem BioAssay (NCI)

# Test system: SR leukemia
# Assay Overview: NCI tumour cell line growth inhibition, 48 h
Measure: TGI

Below, 4 compounds whose answers are already recorded.
INSERT INTO results (compound, target_entity, measure, measured_result) VALUES
  ('COc1cc2ccc3c4ccccc4cnc3c2cc1OC', 'SR leukemia', 'TGI', '> 100 µM'),
  ('O=C(Nc1ccc([N+](=O)[O-])cc1)Nn1cnnc1', 'SR leukemia', 'TGI', '> 100 µM'),
  ('c1ccc(-c2oc(-c3ccccc3)c(CN3CCCCC3)c2CN2CCCCC2)cc1', 'SR leukemia', 'TGI', '6.06 µM'),
  ('CC(C)(C)c1cc(C(=O)Nc2ccccc2C(=O)NCCN)cc(C(C)(C)C)c1', 'SR leukemia', 'TGI', '4.56 µM');

Please give TGI, item by item, for the list that follows.
1. CCOCC1(COCC)CCC(c2[nH]ncc2CN(C)CCNC)CC1
2. O=C1OC(c2ccccc2)=NC1c1ccccc1 (configuration not stated)
3. CC1(C)OP(=O)(c2ccccc2)C=C1Sc1ccc([N+](=O)[O-])cc1[N+](=O)[O-] (configuration not stated)
4. CC1=NN(c2nc(N)nc(NS(=O)(=O)c3cc(C)c(Cl)cc3S)n2)C(C)(C)C1

> 100 µM
> 100 µM
42.9 µM
> 10 µM

Return reported TGI values for all items listed beneath this line.
1. Cc1ccc(S(=O)c2cccs2)cc1 (configuration not stated)
2. CN(C)CCN(C)P12(Oc3ccccc3O1)Oc1c(Cl)c(Cl)c(Cl)c(Cl)c1O2
3. Nc1nc(Nc2ccc(Cl)c(Cl)c2)nc2nc[nH]c12
4. Cc1cc2ncn(-c3nc4ccccc4nc3C(C#N)S(C)(=O)=O)c2cc1C (configuration not stated)

> 100 µM
> 100 µM
33.2 µM
> 100 µM

Return reported TGI values for all items listed beneath this line.
1. COc1cccc(/C=C/C(=O)c2ccc3cc(OC)ccc3c2)c1
2. CCOC(=O)C(NC(=O)OCc1ccccc1)C(=O)O (configuration not stated)

1: > 50 µM; 2: > 100 µM
